System: NCI-H196 complex spheroids with HUVEC/MSC, growth % T/C
assay_overview: Anticancer human tumor NCI-H196 cell line growth inhibition [Asc]; active = viability on the fitted dose curve at most 10% of control; inactive = the rest;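 also: spheroids exposed to compound for 7 days before measurement; 100% = DMSO vehicle control wells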
condition_info: second compound 0.316 µM; first compound 0.1 µM
Use one of these outcomes when replying: 1 (yes) = active, 0 (no) = inactive

I'd appreciate the recorded outcome for CNC(C)C(=O)NC1CN(S(=O)(=O)c2cccc(S(=O)(=O)N3CCC4CCC(C(=O)NC(c5ccccc5)c5ccccc5)N4C(=O)C(NC(=O)C(C)NC)C3)c2)CCC2CCC(C(=O)NC(c3ccccc3)c3ccccc3)N2C1=O (stereo unspecified) + Cc1c(S(C)(=O)=O)c(-c2cc(F)cc(N3CCN(c4ccc(NS(=O)(=O)c5ccc(NC(CCN6CCC(C(=O)OCCCP(=O)(O)O)CC6)CSc6ccccc6)c(S(=O)(=O)C(F)(F)F)c5)cc4)CC3)c2)c(-c2ccc(Cl)cc2)n1C(C)C from this test.
1 (yes)

I'd appreciate the recorded outcome for C#Cc1c(F)ccc2cc(O)cc(-c3ncc4c(N5CC6CCC(C5)N6)nc(OCC56CCCN5CC(F)C6)nc4c3F)c12 (stereo unspecified) + CNC(C)C(=O)NC1CN(S(=O)(=O)c2cccc(S(=O)(=O)N3CCC4CCC(C(=O)NC(c5ccccc5)c5ccccc5)N4C(=O)C(NC(=O)C(C)NC)C3)c2)CCC2CCC(C(=O)NC(c3ccccc3)c3ccccc3)N2C1=O from this test.
1 (yes)

I'd appreciate the recorded outcome for NC1CCC(NC2CC2c2ccccc2)CC1 (stereo unspecified) + Cc1c(S(C)(=O)=O)c(-c2cc(F)cc(N3CCN(c4ccc(NS(=O)(=O)c5ccc(NC(CCN6CCC(C(=O)OCCCP(=O)(O)O)CC6)CSc6ccccc6)c(S(=O)(=O)C(F)(F)F)c5)cc4)CC3)c2)c(-c2ccc(Cl)cc2)n1C(C)C from this test.
0 (no)

I'd appreciate the recorded outcome for C=C(F)C(=O)N1CCN(c2nc(OCC3CCCN3C)nc3c2CCN(c2cccc4cccc(Cl)c24)C3)CC1CC#N (stereo unspecified) + Cc1c(S(C)(=O)=O)c(-c2cc(F)cc(N3CCN(c4ccc(NS(=O)(=O)c5ccc(NC(CCN6CCC(C(=O)OCCCP(=O)(O)O)CC6)CSc6ccccc6)c(S(=O)(=O)C(F)(F)F)c5)cc4)CC3)c2)c(-c2ccc(Cl)cc2)n1C(C)C from this test.
0 (no)

I'd appreciate the recorded outcome for O=C(c1ccc(F)c(F)c1Nc1ccc(I)cc1F)N1CC(O)([C@@H]2CCCCN2)C1 + CNC(C)C(=O)NC1CN(S(=O)(=O)c2cccc(S(=O)(=O)N3CCC4CCC(C(=O)NC(c5ccccc5)c5ccccc5)N4C(=O)C(NC(=O)C(C)NC)C3)c2)CCC2CCC(C(=O)NC(c3ccccc3)c3ccccc3)N2C1=O from this test.
1 (yes)

I'd appreciate the recorded outcome for C#Cc1c(F)ccc2cc(O)cc(-c3ncc4c(N5CC6CCC(C5)N6)nc(OCC56CCCN5CC(F)C6)nc4c3F)c12 (stereo unspecified) + Cc1c(S(C)(=O)=O)c(-c2cc(F)cc(N3CCN(c4ccc(NS(=O)(=O)c5ccc(NC(CCN6CCC(C(=O)OCCCP(=O)(O)O)CC6)CSc6ccccc6)c(S(=O)(=O)C(F)(F)F)c5)cc4)CC3)c2)c(-c2ccc(Cl)cc2)n1C(C)C from this test.
0 (no)

----------
System: NCI-H196 complex spheroids with HUVEC/MSC, growth % T/C
assay_overview: Anticancer human tumor NCI-H196 cell line growth inhibition [Asc]; active = viability on the fitted dose curve at most 10% of control; inactive = the rest;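 also: spheroids exposed to compound for 7 days before measurement; 100% = DMSO vehicle control wells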
condition_info: second compound 0.1 µM; first compound 0.3 µM
Use one of these outcomes when replying: 1.0 = active, 0.0 = inactive

I'd appreciate the recorded outcome for Cc1nc(N2CCC3(CC2)COC(C)C3N)c(CO)nc1Sc1ccnc(N)c1Cl (stereo not drawn) + CNC(C)C(=O)NC1CN(S(=O)(=O)c2cccc(S(=O)(=O)N3CCC4CCC(C(=O)NC(c5ccccc5)c5ccccc5)N4C(=O)C(NC(=O)C(C)NC)C3)c2)CCC2CCC(C(=O)NC(c3ccccc3)c3ccccc3)N2C1=O from this test.
1.0

I'd appreciate the recorded outcome for NC(=O)C(=Cn1cnc(-c2cc(C(F)(F)F)cc(C(F)(F)F)c2)n1)c1cncnc1 + CNC(C)C(=O)NC1CN(S(=O)(=O)c2cccc(S(=O)(=O)N3CCC4CCC(C(=O)NC(c5ccccc5)c5ccccc5)N4C(=O)C(NC(=O)C(C)NC)C3)c2)CCC2CCC(C(=O)NC(c3ccccc3)c3ccccc3)N2C1=O from this test.
1.0

I'd appreciate the recorded outcome for CCN1C(C(=O)NC23CCC(C(=O)O)(CC2)CC3)C(c2cccc(Cl)c2F)C2(C(=O)Nc3cc(Cl)ccc32)C12CCCCC2 (stereo not drawn) + Cc1c(S(C)(=O)=O)c(-c2cc(F)cc(N3CCN(c4ccc(NS(=O)(=O)c5ccc(NC(CCN6CCC(C(=O)OCCCP(=O)(O)O)CC6)CSc6ccccc6)c(S(=O)(=O)C(F)(F)F)c5)cc4)CC3)c2)c(-c2ccc(Cl)cc2)n1C(C)C from this test.
0.0
